Target: Chymotrypsin-C (Homo sapiens, UniProt Q99895)
Sequence (Q99895 whole entry): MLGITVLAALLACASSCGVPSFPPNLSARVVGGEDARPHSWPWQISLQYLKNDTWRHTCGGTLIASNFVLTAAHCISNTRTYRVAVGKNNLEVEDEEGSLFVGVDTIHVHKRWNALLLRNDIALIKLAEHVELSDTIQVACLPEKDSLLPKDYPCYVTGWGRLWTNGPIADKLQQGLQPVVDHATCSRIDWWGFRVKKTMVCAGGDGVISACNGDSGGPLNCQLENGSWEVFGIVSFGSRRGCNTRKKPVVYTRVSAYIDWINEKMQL
value-kind: IC50 (µM)
Numbers only, in µM.

Q: For the molecule C=C(c1cccc(OC(=O)N[C@@H](CC(C)C)C(=O)N(CCN(Cc2ccc(C(=O)OC)cc2)Cc2ccc(C(=O)OC)cc2)Cc2ccc(Cl)cc2)c1)c1sc(=S)n(CC(=O)OCC)c1O , report IC50.
A: 210
